MIC overview
tested on: Pseudomonas aeruginosa PA (RR-1); experiment: MIC determination; type: cell-based; settings: Pseudomonas aeruginosa; PA (RR-1); CAMH broth, 20 μM Apo-Transferrin, 37° C., 18 hours; read-out: Minimum Inhibitory Concentrations, PA (RR-1)
Respond numerically; units are µg/mL and should not be typed.

Example results:
[[record]]
molecule = "CC(C)(O/N=C(\\C(=O)N[C@@H]1C(=O)N2C(C(=O)O)=C(C=Cc3ccc(C[n+]4ccc(NC(=O)c5ccc(O)c(O)c5)cc4)cc3)CS[C@H]12)c1csc(N)n1)C(=O)O (mixture of isomers)"
quantity_kind = "MIC"
meas_value = 4

[[record]]
molecule = "CC(C)(O/N=C(\\C(=O)N[C@@H]1C(=O)N2C(C(=O)O)=C(C=Cc3ccc(C[N+]4(C)Cc5cc(O)c(O)cc5C4)cc3)CS[C@H]12)c1csc(N)n1)C(=O)O (mixture of isomers)"
quantity_kind = "MIC"
meas_value = 4

[[record]]
molecule = "CC(C)(O/N=C(\\C(=O)N[C@@H]1C(=O)N2C(C(=O)O)=C(C=Cc3ccc(C[N+](C)(C)Cc4ccc(O)c(O)c4)cc3)CS[C@H]12)c1csc(N)n1)C(=O)O (mixture of isomers)"
quantity_kind = "MIC"
meas_value = 4

[[record]]
molecule = "CC(C)(O/N=C(\\C(=O)N[C@@H]1C(=O)N2C(C(=O)O)=C(C=Cc3ccc(C[n+]4ccc(-c5ccc(O)c(O)c5)cc4)cc3)CS[C@H]12)c1csc(N)n1)C(=O)O (mixture of isomers)"
quantity_kind = "MIC"
meas_value = 4

[[record]]
molecule = "CC(C)(O/N=C(\\C(=O)N[C@@H]1C(=O)N2C(C(=O)O)=C(C=Cc3ccc(C[N+]4(C)Cc5c(Cl)c(O)c(O)c(Cl)c5C4)cc3)CS[C@H]12)c1csc(N)n1)C(=O)O (mixture of isomers)"
quantity_kind = "MIC"
meas_value = 0.13


MIC reading for CC(C)(O/N=C(\C(=O)N[C@@H]1C(=O)N2C(C(=O)O)=C(C=Cc3ccc(C[N+]4(C)CCc5cc(O)c(O)cc5C4)cc3)CS[C@H]12)c1csc(N)n1)C(=O)O (mixture of isomers) : 4

MIC reading for CC(C)(O/N=C(\C(=O)N[C@@H]1C(=O)N2C(C(=O)O)=C(C=Cc3ccc(C[n+]4cccc(-c5ccc(O)c(O)c5)c4)cc3)CS[C@H]12)c1csc(N)n1)C(=O)O (mixture of isomers) : 4

MIC reading for CC(C)(O/N=C(\C(=O)N[C@@H]1C(=O)N2C(C(=O)O)=C(C=Cc3ccc(C[N+](C)(C)Cc4cc(O)c(O)c(Cl)c4)cc3)CS[C@H]12)c1csc(N)n1)C(=O)O (mixture of isomers) : 2

MIC reading for CC(C)(O/N=C(\C(=O)N[C@@H]1C(=O)N2C(C(=O)O)=C(C=Cc3ccc(C[N+]4(C)CCc5c(Cl)c(O)c(O)c(Cl)c5C4)cc3)CS[C@H]12)c1csc(N)n1)C(=O)O (mixture of isomers) : 0.25
